- system tested: TBG (Homo sapiens)
- Construct: from tissue; host or cells: serum
- Sequence (P05543 21-415): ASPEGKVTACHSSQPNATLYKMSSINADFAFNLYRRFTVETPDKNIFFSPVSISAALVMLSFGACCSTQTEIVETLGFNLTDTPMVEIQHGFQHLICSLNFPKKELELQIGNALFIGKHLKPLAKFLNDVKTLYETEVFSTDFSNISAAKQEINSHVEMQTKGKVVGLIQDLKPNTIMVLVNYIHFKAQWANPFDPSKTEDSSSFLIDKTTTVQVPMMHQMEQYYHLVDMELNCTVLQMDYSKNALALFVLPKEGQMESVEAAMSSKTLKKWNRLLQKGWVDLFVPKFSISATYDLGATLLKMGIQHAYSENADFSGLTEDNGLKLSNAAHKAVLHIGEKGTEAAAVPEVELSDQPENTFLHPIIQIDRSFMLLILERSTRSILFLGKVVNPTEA
- assay info: Displacement of radioactive T3 from TBG
- Type: binding
Structures can show the parent of a compound that is named as a salt.
observable: AMOUNT T3 DISPLACED FROM TBG (ng)
State the answer as a number, implicitly in ng.

The following compounds have reported results that may help.
CN(C)CCCN1c2ccccc2Sc2ccc(Cl)cc21 [Chlorpromazine HCl] | 6.6
CN(C)CCC=C1c2ccccc2COc2ccccc21 [Doxepin HCl] | 10.8
O=S(=O)(O)c1cccc2cccc(Nc3ccccc3)c12 [ANS, 8-anilino-1-napthalene-sulfonic acid] | 11.2
C[CH2][Hg][S]c1ccccc1C(=O)[O-].[Na+] [Thimerosal] | 8.0
CN1C(=O)CN=C(c2ccccc2)c2cc(Cl)ccc21 [Diazepam] | 7.0
O=C([O-])c1ccccc1O.[Na+] [Sodium Salicylate] | 11.0

Please turn your attention to the following entry.
Req: Please report the measured AMOUNT T3 DISPLACED FROM TBG for CN1CCN(CCCN2c3ccccc3Sc3ccc(Cl)cc32)CC1 [Prochlorperazine]
Resp: 7.0

----------
- system tested: TBG (thyroxine-binding globulin) (Homo sapiens, UniProt P05543)
- Construct: from tissue; host or cells: human serum, diluted 1/32
- Sequence (P05543 21-415): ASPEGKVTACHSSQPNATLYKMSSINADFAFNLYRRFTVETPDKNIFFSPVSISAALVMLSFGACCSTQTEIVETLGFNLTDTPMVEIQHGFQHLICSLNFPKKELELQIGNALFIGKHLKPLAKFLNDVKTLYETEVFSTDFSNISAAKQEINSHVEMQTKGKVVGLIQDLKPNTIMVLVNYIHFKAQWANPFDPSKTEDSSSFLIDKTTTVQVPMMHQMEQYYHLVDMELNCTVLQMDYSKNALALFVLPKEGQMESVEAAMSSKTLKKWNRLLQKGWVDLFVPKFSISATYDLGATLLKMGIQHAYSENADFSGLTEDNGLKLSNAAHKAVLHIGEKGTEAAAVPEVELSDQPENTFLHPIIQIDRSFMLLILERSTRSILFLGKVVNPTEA
- assay info: Displacement of radioactive T4 from TBG in a CPBA system
- Parameters: unit not given here
- assay context: 100 ug blocking agent
observable: AMOUNT T4 DISPLACED FROM TBG
Just the number, please.

O=C1NC(=S)NC1(c1ccccc1)c1ccccc1 | 6.1
CC(=O)NCCOC(=O)C(Oc1cccc(C(F)(F)F)c1)c1ccc(Cl)cc1 (stereo not shown) [Halofenate] | 8.4
O=S(=O)(O)c1cccc2ccccc12 | 3.0

Req: Identify AMOUNT T4 DISPLACED FROM TBG associated with the molecule O=C1NC(=O)C(c2ccccc2)(c2ccccc2)N1 [Dilantin]
Resp: 5.7
